# TGT: Claudin18.2-His protein (human)
# ASSAY_SUMMARY: indirect ELISA on coated Claudin18.2-His
Below is a list of entries, each paired with its recorded EC50 value.
Give just the numeric value; µg/mL need not be written.

>>> experimental_result("280F3B6 (antibody, V domains shown) VH: QAYLQQSGAELVRSGASVKMSCKASGYTFTSHNMHWVKQTPGQGLEWIGYIYPGNGGTNYNQKFKGKATLTADTSSSTAYMQISSLTSEDSAVYFCTRDYYGNSFAYWGQGTLVTVSA VL: DIVMTQSPSSLTEKAGERVSMSCKSSQSLFNSGNQKNYLTWYQQKPGQPPKLLIYWASTRESGVPDRFTGSGSGTDFTLTISSVQAEDLAVYYCQNDYWYPFTFGAGTKLELK")
0.012
>>> experimental_result("424G9G3 (antibody, V domains shown) VH: QVQLQQSGPEVVRPGASVKMSCKGSGYTLNNFWMHWVKQRPGQGLEWIGMIDTSNGETRLNQIFKDKATLTVDKSSKTAYMQLSSLTSEDSAVYYCAPYGNFADWGQGTTLTVSS VL: DVLLTQTPLSLPVSLGDQASISCRSSQSIVYGNGNTYLEWYLQKPGQSPKLLIYKVSSRFSGVPDRFSGSGSGTDFTLKITKVEAEDLGVYYCFQGSHVPFTFGSGTKLEIK")
0.03

Okay, next one:
Query :: # query: EC50 of entry 275H9A2 (antibody, V domains shown) VH: QAYLQQSGAELVRSGASVKMSCRASGYSFTSHNMHWVKQTPGQGLEWIGYIYPGNGGSYYNQKFKGKAILTADTSSSTAYMQISSLTSEDSAVYFCTRDYYGNSFVYWGQGTLVTVSA VL: DVVMTQSPSSLTEKTGEKVSMSCKSSQSLLNSGNQKNYLTWYQQKPGQPPKLLIYWASTRESGVPDRFTGSGSGTDFTLTISSLQTEDLAVYYCQNNFRYPFTFGAGTKLELK
Result :: 0.0245

Values were extracted from patent US20220073643A1.
